// provenance: patent US9951021B2

# IC50 listing for each entry below
System: UM-UC-3
Assay: Selectivity evaluation, cytotoxicity in UM-UC-3
Type: cell-based
Conditions: Homo sapiens, UMUC3; UM-UC-3 (malignant), 72 hours, ATP detection
Enter your answer as a number in nM; do not include the unit.

• CC(=O)c1c([S+]([O-])Cc2ccccc2)nc2c(Br)ccc(Cl)c2c1O (centres unmarked) [Compound 4] = 1500

Now for another entry.
Tell us which IC50 value is on record for CC(=O)c1c([S+]([O-])Cc2ccc([N+](=O)[O-])cc2)[nH]c2c(Br)ccc(Cl)c2c1=O (centres unmarked) [Compound 33] 1600
